Values from ChEMBL document CHEMBL5291721

Form: system (Adenosine receptor A3 (Homo sapiens, UniProt P0DMS8)), quantity (AC50), values below. Note: assay procedure not described here.

INSERT INTO assay_data (compound, experimental_system, result) VALUES
  ('CC[C@@H]([C@H](C)O)n1ncn(-c2ccc(N3CCN(c4ccc(OC[C@@H]5CO[C@@](Cn6cncn6)(c6ccc(F)cc6F)C5)cc4)CC3)cc2)c1=O', 'Adenosine receptor A3 (Homo sapiens, UniProt P0DMS8)', '> 30 µM');

Provide reported AC50 for each item, in the same order as listed.
1. CC(CCc1ccc(O)cc1)NCCc1ccc(O)c(O)c1 (stereo not drawn)
2. C[C@]12CC[C@@H]3c4ccc(O)cc4C[C@@H](CCCCCCCCC[S+]([O-])CCCC(F)(F)C(F)(F)F)[C@H]3[C@@H]1CC[C@@H]2O (stereo partly drawn)

Marked response:
22.9 µM
> 30 µM
